# assay_text: LD50 in mouse, i.v. (Table 3)
# Format: in vivo
# recorded_conditions: in vivo, iv, 14 days after application, solution with 300 mg J/ml
assay_endpoint: LD50 at 336 h (mg/kg)
Numbers only here, please. The scale is mg/kg.

q: Consider the compound shown here: CC(=O)Nc1c(I)c(NC(C)=O)c(I)c(C(=O)N(C)CC(=O)N(C)C[C@H](O)[C@@H](O)[C@H](O)[C@H](O)CO)c1I [II] What is its recorded LD50 at 336 h?
a: 36000

====

# assay_text: viscosity of aqueous preparations (Table 1)
# Assay type: physicochemical
# recorded_conditions: 20° C., 200 mg J/ml
assay_endpoint: Viscosity (cP)

1) CC(=O)Nc1c(I)c(NC(C)=O)c(I)c(C(=O)N[C@@H](CC(=O)N(C)C[C@H](O)[C@@H](O)[C@H](O)[C@H](O)CO)C(=O)N(C)C[C@H](O)[C@@H](O)[C@H](O)[C@H](O)CO)c1I ... 11.14
2) CC(=O)Nc1c(I)c(NC(C)=O)c(I)c(C(=O)N(C)CC(=O)N(C)C[C@H](O)[C@@H](O)[C@H](O)[C@H](O)CO)c1I ... 5.74

a = CC(=O)Nc1c(I)c(NC(C)=O)c(I)c(C(=O)N[C@@H](CO)C(=O)N(C)C[C@H](O)[C@@H](O)[C@H](O)[C@H](O)CO)c1I
b = CC(=O)Nc1c(I)c(NC(C)=O)c(I)c(C(=O)NC(CC(=O)N(C)C[C@H](O)[C@@H](O)[C@H](O)[C@H](O)CO)C(=O)N(C)C[C@H](O)[C@@H](O)[C@H](O)[C@H](O)CO)c1I (mixture of isomers)
q: Please let me know which one, a or b , has a lower measured Viscosity value. Your answer should be the label attached to the chosen record.
a: a
(a: 5.15 cP, b: 10.65 cP)

====

# assay_text: viscosity of aqueous preparations (Table 1)
# Assay type: physicochemical
# recorded_conditions: 37° C., 250 mg J/ml
assay_endpoint: Viscosity (cP)

1) CC(=O)Nc1c(I)c(NC(C)=O)c(I)c(C(=O)N(C)CC(=O)N(C)C[C@H](O)[C@@H](O)[C@H](O)[C@H](O)CO)c1I [II] ... 6.20

I = CC(=O)Nc1c(I)c(NC(C)=O)c(I)c(C(=O)NC(CC(=O)N(C)C[C@H](O)[C@@H](O)[C@H](O)[C@H](O)CO)C(=O)N(C)C[C@H](O)[C@@H](O)[C@H](O)[C@H](O)CO)c1I (mixture of isomers) [X]
II = CC(=O)Nc1c(I)c(NC(C)=O)c(I)c(C(=O)N[C@@H](CO)C(=O)N(C)C[C@H](O)[C@@H](O)[C@H](O)[C@H](O)CO)c1I [VIII]
q: Which value of Viscosity is greater, the one for I or the one for II ? Your answer should be the label attached to the chosen record.
a: I

The reported measurements were obtained from patent US4607123A.
